Biological target: VIM-2 (Escherichia coli)
Construct: VIM-2 (residues 27–266)
Assay: β-lactamase inhibition assay (nitrocefin)
Conditions: nitrocefin substrate; read-out: BLi, IC50 VIM-2
measurement_name: IC50 (µM)
Respond numerically; units are µM and should not be typed.

Return value of IC50 for input O=C(O)COc1cc(O)c2c(=O)c(OCCC3CCCC3)c(-c3ccc(F)c(F)c3)oc2c1 [Compound 6] , no commentary.
37.3

Specify reported IC50 for the compound shown: CC(C)(C)CCOc1c(-c2ccc(F)c(F)c2)oc2cc(OCC(=O)Nc3ccccc3)cc(O)c2c1=O [Compound 9]
12.6

Assign IC50 to the following record: O=C(O)COc1cc(O)c2c(=O)c(OCCC3CCCCC3)c(-c3ccc(F)c(F)c3)oc2c1 [Compound 7]
21

###

Experiment: In vivo pharmacokinetic study
Parameters: species or system Sprague–Dawley (SD) rats
Conditions: male, Sprague-Dawley, serum; rat; Oral (10 mg/kg)
measurement_name: AUC(0-t) (ng·h/mL)
# output: bare number, implied unit ng·h/mL

Let me know recorded AUC(0-t) for `CC(C)(C)CCOc1c(-c2ccc(F)c(F)c2)oc2cc(OCC(=O)O)cc(O)c2c1=O` , thanks.
1250

###

System: PA-016, blaIMP
Assay: MIC / checkerboard with ATM
Assay type: cell-based, P. aeruginosa
Parameters: key: S: susceptible; I: intermediate; R: resistant
Details: PA-016; Table S2
measurement_name: Susceptibility category

Recorded results for 5 molecules are shown here.
C[C@@H](O)[C@H]1C(=O)N2C(C(=O)O)=C(SCCN=CN)C[C@H]12 [IPM, imipenem, reference compound] | R
CNC(C)C1CCC(N)C(OC2C(N)CC(N)C(OC3OCC(C)(O)C(NC)C3O)C2O)O1 (stereo not shown) [GEN, gentamicin, reference compound] | R
C[C@H]1[C@H](NC(=O)/C(=N\OC(C)(C)C(=O)O)c2csc(N)n2)C(=O)N1S(=O)(=O)O | R
NCC[C@H](O)C(=O)N[C@@H]1C[C@H](N)[C@@H](O[C@H]2O[C@H](CN)[C@@H](O)[C@H](O)[C@H]2O)[C@H](O)[C@H]1O[C@H]1O[C@H](CO)[C@@H](O)[C@H](N)[C@H]1O [AMK, amikacin, reference compound] | R
CC(C)(O/N=C(\C(=O)N[C@@H]1C(=O)N2C(C(=O)[O-])=C(C[n+]3ccccc3)CS[C@H]12)c1csc(N)n1)C(=O)O [CAZ, ceftazidime, reference compound] | R

Give the reported value of Susceptibility category for this record: C[C@@H](O)[C@H]1C(=O)N2C(C(=O)O)=C(S[C@@H]3CN[C@H](C(=O)N(C)C)C3)[C@H](C)[C@H]12 [MEM, meropenem, reference compound]
R

Quote Susceptibility category reported for CO/N=C(\C(=O)N[C@@H]1C(=O)N2C(C(=O)[O-])=C(C[N+]3(C)CCCC3)CS[C@H]12)c1csc(N)n1 [FEP, cefepime, reference compound] please.
R

###

Test system: PA-032, blaIMP
Assay: MIC / checkerboard with ATM
Format: cell-based, P. aeruginosa
Design: key: S: susceptible; I: intermediate; R: resistant
Settings: PA-032; Table S2
measurement_name: Susceptibility category

Recorded results for 5 compounds are shown here.
C[C@H]1[C@H](NC(=O)/C(=N\OC(C)(C)C(=O)O)c2csc(N)n2)C(=O)N1S(=O)(=O)O | S
CO/N=C(\C(=O)N[C@@H]1C(=O)N2C(C(=O)[O-])=C(C[N+]3(C)CCCC3)CS[C@H]12)c1csc(N)n1 [FEP, cefepime, reference compound] | R
C[C@@H](O)[C@H]1C(=O)N2C(C(=O)O)=C(SCCN=CN)C[C@H]12 [IPM, imipenem, reference compound] | R
C[C@@H](O)[C@H]1C(=O)N2C(C(=O)O)=C(S[C@@H]3CN[C@H](C(=O)N(C)C)C3)[C@H](C)[C@H]12 [MEM, meropenem, reference compound] | R
NCC[C@H](O)C(=O)N[C@@H]1C[C@H](N)[C@@H](O[C@H]2O[C@H](CN)[C@@H](O)[C@H](O)[C@H]2O)[C@H](O)[C@H]1O[C@H]1O[C@H](CO)[C@@H](O)[C@H](N)[C@H]1O [AMK, amikacin, reference compound] | S

Recall the reported Susceptibility category of CC(C)(O/N=C(\C(=O)N[C@@H]1C(=O)N2C(C(=O)[O-])=C(C[n+]3ccccc3)CS[C@H]12)c1csc(N)n1)C(=O)O [CAZ, ceftazidime, reference compound] when tested on PA-032, blaIMP.
S

Print PA-032, blaIMP Susceptibility category for CNC(C)C1CCC(N)C(OC2C(N)CC(N)C(OC3OCC(C)(O)C(NC)C3O)C2O)O1 (stereo not shown) [GEN, gentamicin, reference compound] .
S
